# protocol: Brain-migration ability: plasma and cerebral concentration by HPLC
# Type: in vivo, male ICR mice
# conditionsUsed: mouse, brain; one hour after 30 mg/kg single-dose administration, male ICR mice, ave ± SEM; read-out: Brain concentration

molecule	concentration at 1 h [µM]
Cc1cc2c(cc1-n1nnc3cc(C(=O)O)ccc31)C(C)(C)CCC2(C)C [CBt-PMN]	11.4

Sourced from patent US10285985B2
